// TGI lookup, one value per entry
tested on: SF-539 CNS; experiment: NCI tumour cell line growth inhibition, 48 h

[
  {
    "compound": "COC(=O)C1=C(OC(=O)/C=C/c2ccc(Cl)cc2)C(C(=O)OC)[C@@]2(O)[C@@H](C(=O)OC)[C@H](C)C[C@@H]1[C@@H]2C(=O)OC (some centres not stated)",
    "TGI": "> 100 µM"
  },
  {
    "compound": "CCCCCCCCC(=O)OCC(CS[As](C)C)OC(=O)CCCCCCCC (configuration not stated)",
    "TGI": "1.28 µM"
  },
  {
    "compound": "CC1=CC(N2C(=O)C(C)=CC2O)NC1=O (configuration not stated)",
    "TGI": "> 100 µM"
  },
  {
    "compound": "O=Cc1ccc(CCl)cc1",
    "TGI": "31.6 µM"
  },
  {
    "compound": "O=c1[nH]c(=O)n(C2OC(CO)C(O)C2O)cc1Oc1ccccc1 (configuration not stated)",
    "TGI": "> 100 µM"
  }
]

INPUT: Reported TGI, compound "CCOc1cc2oc(C)cc(=O)c2c(OC)c1C=Nc1ccc(Cn2c(C)nc3ccccc32)cc1" : ____
OUTPUT: > 100 µM

INPUT: Reported TGI, compound "O=C(Nc1ccc(/C=C/c2ccc(NC(=O)c3cc(S(=O)(=O)O)c4cccnc4c3O)cc2S(=O)(=O)O)c(S(=O)(=O)O)c1)c1cc(S(=O)(=O)O)c2cccnc2c1O" : ____
OUTPUT: > 54.9 µM

====

tested on: UACC-62 melanoma; experiment: NCI tumour cell line growth inhibition, 48 h
// TGI lookup, one value per entry

Below, each entry is followed by its recorded TGI result.
[
  {
    "compound": "O=C1CCSC2=C1SCc1sccc12",
    "TGI": "> 100 µM"
  },
  {
    "compound": "CCCCCCCCCCCCOC1C(CNC(=O)C2OC3OC(C)(C)OC3C2NC(=O)Nc2ccc(CC(=O)NC(Cc3ccccc3)C(=O)O)cc2)OC2OC(C)(C)OC21 (configuration not stated)",
    "TGI": "> 25 µM"
  },
  {
    "compound": "CCOP(=O)(OCC)/C(C#N)=C/c1cnc[nH]1",
    "TGI": "> 100 µM"
  }
]

INPUT: Reported TGI, compound COC1=CC(c2ccc[nH]2)=N/C1=C\c1[nH]c(C)c(C(=O)CCCCC(=O)Oc2ccc3c(c2)CCC2C3CC[C@]3(C)[C@@H](O)CC[C@@H]23)c1C (some centres not stated) : ____
OUTPUT: > 100 µM

INPUT: Reported TGI, compound "O=c1ssc(Cl)c1Cl" : ____
OUTPUT: > 10 µM

INPUT: Reported TGI, compound CSC12c3cc(C)n(-c4ccccc4)c3CC(C)(C)CN1C(=O)C2Oc1ccccc1 (configuration not stated) : ____
OUTPUT: > 100 µM

====

system: MOLT-4 leukemia; assay: NCI tumour cell line growth inhibition, 48 h
recorded.metric: TGI

Below, each entry is followed by its recorded TGI result.
[
  {
    "chem.smiles": "Ic1cc2c(cc1C1SCCCS1)OCO2",
    "TGI": "> 100 µM"
  },
  {
    "chem.smiles": "O=C(c1ccc(Cl)cc1)N(C(=S)OCc1ccccn1)c1ccccc1",
    "TGI": "> 100 µM"
  }
]

Now look at this entry.
INPUT: Reported TGI, molecule "CC(C)(C)c1cc2c(O)c(c1)Cc1cc(C(C)(C)C)cc(c1O)Cc1cc(C(C)(C)C)cc(c1O)Cc1cc(C(C)(C)C)cc(c1O)Cc1cc(C(C)(C)C)cc(c1O)Cc1cc(C(C)(C)C)cc(c1O)Cc1cc(C(C)(C)C)cc(c1O)Cc1cc(C(C)(C)C)cc(c1O)C2" : ____
OUTPUT: > 50 µM

====

system: HCC-2998 colon; assay: NCI tumour cell line growth inhibition, 48 h
// TGI lookup, one value per entry
Numeric answer only, unit µM assumed.

[
  {
    "compound": "COc1ccc(Nc2cc(C)nc(NCCCNc3ccnc4cc(Cl)ccc34)n2)cc1",
    "study.target": "HCC-2998 colon",
    "TGI, µM": 3.45
  },
  {
    "compound": "O=C1OCC2=C1C(c1ccc(Cl)c(Cl)c1)c1cc3c(cc1N2CCO)CCC3 (stereo unspecified)",
    "study.target": "HCC-2998 colon",
    "TGI, µM": 4.29
  },
  {
    "compound": "CC(=O)[CH-]C(=O)c1ccccc1.CC(=O)[CH-]C(=O)c1ccccc1.C[C@]12CCC(=O)C=C1CC[C@@H]1C2CC[C@@]2(C)C1CC[C@@H]2[O-].C[C@]12CCC(=O)C=C1CC[C@@H]1C2CC[C@@]2(C)C1CC[C@@H]2[O-].Cl.[Ti+4] (stereo partly specified)",
    "study.target": "HCC-2998 colon",
    "TGI, µM": 42.2
  }
]

INPUT: Reported TGI, compound "Clc1ccc(OCc2nnc3n2N=C(c2ccc(Cl)cc2Cl)CS3)cc1" : ____
OUTPUT: 35

INPUT: Reported TGI, compound "Cc1cc(C(C)(C)C)cc(CNC2CCCCC2)c1O" : ____
OUTPUT: 10.4

INPUT: Reported TGI, compound "O=C1c2cccc(NCCN=Cc3ccccc3O)c2C(=O)c2c(NCCN=Cc3ccccc3O)cccc21" : ____
OUTPUT: 1.72

INPUT: Reported TGI, compound CC(C)Cc1cc2c(cc1O)CCC1C2CC[C@@]2(C)C1CC[C@@H]2O (stereo partly specified) : ____
OUTPUT: 36.1

====

system: A549 NSCLC; assay: NCI tumour cell line growth inhibition, 48 h
recorded.metric: TGI

INPUT: Reported TGI, compound CCCCCC/C=C1\CCC(CN2CCOCC2)C1=O (stereo not drawn) : ____
OUTPUT: > 67.3 µM

INPUT: Reported TGI, compound "COc1cc(-c2cc(-c3cc(OC)c(OC)c(OC)c3)nc3nc(N)[nH]c(=O)c23)ccc1Oc1ccnc2cc(Cl)ccc12" : ____
OUTPUT: > 100 µM

INPUT: Reported TGI, compound CC(=O)NC1C(OCc2ccccc2)OC(COC(=O)CCCCCCCCCCNc2ccc([N+](=O)[O-])c3[nH]c4ccccc4c(=O)c23)C(O)C1OC(C)C(=O)NC(C)C(=O)NC(CCC(N)=O)C(=O)OCc1ccccc1 (stereo not drawn) : ____
OUTPUT: > 100 µM

====

tested on: DMS 114 small cell lung; assay: NCI tumour cell line growth inhibition, 48 h
// TGI lookup, one value per entry

[
  {
    "compound": "COC1(O)c2cccc(Cl)c2C(=O)N1C1(C(N)=O)CCCCC1 (stereo not drawn)",
    "result": "> 100 µM"
  },
  {
    "compound": "O=C(COC(=O)c1cccc2c(=O)c3ccccc3[nH]c12)Nc1ccc(C(=O)O)cc1",
    "result": "> 100 µM"
  }
]

Now look at this entry.
INPUT: Reported TGI, compound COc1ccc(C2C(C)C(=O)C(C)C(c3ccc(OC)cc3)N2N=O)cc1 (stereo not drawn) : ____
OUTPUT: > 1000 µM

====

system: SNB-19 CNS; assay: NCI tumour cell line growth inhibition, 48 h; in the data active = GI50 below about 0.43 µM; inactive = the rest
Please reply with one of these outcomes: 1 (yes) (active), 0 (no) (inactive)

INPUT: Test call, this compound: CCCCCCCCCCCCCCCCC(=O)O.CCCCCCCCCCCCCCCCCC(=O)O.CCCCCCCCCCCCCCCCCC(=O)O.CCCCCCCCCCCCCCCCCC(=O)O.CCCCCCCCCCCCCCCCCC(=O)O.CO[CH-]OC12COC1CC(O)C1(C)C(O)C(OC(C)O)C3=C(C)C(OC(=O)C(O)C([NH-])c4ccccc4)CC(O)(C(OC(=O)c4ccccc4)C21)C3(C)C.[Cu+].[Zn].[Zn].[Zn].[Zn].[Zn] (configuration not stated)
OUTPUT: 1 (yes)

INPUT: Test call, this compound: "CC(=O)c1cc(C(=O)c2ccc3c(c2)Sc2ccccc2N3)c2cc(C)ccn12"
OUTPUT: 1 (yes)

INPUT: Test call, this compound: "Oc1cc2ccccc2c(-c2c(O)c(O)cc3ccccc23)c1O"
OUTPUT: 0 (no)

INPUT: Test call, this compound: "CCN1Cc2nc3sc(C)c(C)c3c(=O)n2C=C1C"
OUTPUT: 0 (no)

INPUT: Test call, this compound: "O=C1c2cccc(NCCN=Cc3ccccc3O)c2C(=O)c2c(NCCN=Cc3ccccc3O)cccc21"
OUTPUT: 0 (no)

INPUT: Test call, this compound: CCCCCCCCC(=O)OCC(CS[As](C)C)OC(=O)CCCCCCCC (configuration not stated)
OUTPUT: 0 (no)

INPUT: Test call, this compound: O=C1OCC2=C1C(c1ccc(Cl)c(Cl)c1)c1cc3c(cc1N2CCO)CCC3 (configuration not stated)
OUTPUT: 1 (yes)
